Molecular target: ENT1 (Homo sapiens)
Construct: The complete ORF of ENT1 (amplified using forward primer); expressed in transfected cells; host or cells: Xenopus laevis oocytes injected with in vitro-transcribed capped mRNA from pOX-hENT1
Assay: Inhibition of 3H-nucleoside influx by BAs in ENT1-expressing Xenopus oocytes
Assay type: cell-based
Details: 3H-Ado 20 μM, sodium-free buffer; read-out: ENT1 IC50 (Ado uptake)
Excerpt: We expressed individual ENTs (ENT1, ENT2, and ENT3) in X. laevis oocytes (as described above) and analyzed the Ado influx from each of the ENTs in the presence of different BAs to better understand whether the inhibition profiles differ across human ENTs. […] We also conducted an analysis of the concentration-dependent inhibition of Ado transport to estimate the IC50 values of the BAs (Fig. 4, D–F and Table 2). […]
Assignment: determine reported pIC50 for the given compounds.
Bear in mind: pIC50 is minus log10 of a mol/L concentration; give just that figure.

// lookup pIC50 for `C[C@H](CCC(=O)O)[C@H]1CC[C@H]2[C@@H]3CC[C@@H]4C[C@H](O)CC[C@]4(C)[C@H]3CC[C@]12C` 4.17

Now the compound `C[C@H](CCC(=O)NCC(=O)O)[C@H]1CC[C@H]2[C@@H]3[C@H](O)C[C@@H]4C[C@H](O)CC[C@]4(C)[C@H]3C[C@H](O)[C@]12C` 4.40

Query `C[C@H](CCC(=O)O)[C@H]1CC[C@H]2[C@@H]3CC[C@@H]4C[C@H](O)CC[C@]4(C)[C@H]3C[C@H](O)[C@]12C` next 4.25

Again, but for `C[C@H](CCC(=O)NCCS(=O)(=O)O)[C@H]1CC[C@H]2[C@@H]3[C@@H](O)C[C@@H]4C[C@H](O)CC[C@]4(C)[C@H]3CC[C@]12C` 3.69

What do you have for `C[C@H](CCC(=O)O)[C@H]1CC[C@H]2[C@@H]3[C@H](O)C[C@@H]4C[C@H](O)CC[C@]4(C)[C@H]3C[C@H](O)[C@]12C` ? 4.38

Would you kindly repeat that for `C[C@H](CCC(=O)O)[C@H]1CC[C@H]2[C@@H]3[C@H](O)C[C@@H]4C[C@H](O)CC[C@]4(C)[C@H]3CC[C@]12C` ? 4.61

----------
Target: ENT2 (Homo sapiens, UniProt Q14542)
Sequence (Q14542 whole entry): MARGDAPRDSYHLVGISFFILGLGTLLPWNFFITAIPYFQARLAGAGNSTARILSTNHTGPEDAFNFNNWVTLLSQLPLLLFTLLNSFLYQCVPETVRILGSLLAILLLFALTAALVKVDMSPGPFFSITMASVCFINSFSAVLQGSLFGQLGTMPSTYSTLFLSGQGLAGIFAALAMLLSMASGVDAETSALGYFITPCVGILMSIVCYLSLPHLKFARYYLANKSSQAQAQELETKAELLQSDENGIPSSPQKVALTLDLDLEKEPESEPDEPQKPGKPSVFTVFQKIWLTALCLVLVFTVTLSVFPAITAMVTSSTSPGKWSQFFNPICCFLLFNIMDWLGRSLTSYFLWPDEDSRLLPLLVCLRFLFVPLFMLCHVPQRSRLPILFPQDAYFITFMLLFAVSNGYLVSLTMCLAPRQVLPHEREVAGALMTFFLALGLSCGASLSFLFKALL
Test: BA transport by ENT2-injected oocytes quantified by LC-MS/MS
Type: cell-based
Parameters: expressed in transfected cells; host or cells: Xenopus laevis oocytes injected with in vitro-transcribed capped mRNA from pOX-hENT2
Conditions: pH 7.4, p < 0.001 compared with water-injected oocytes
measurement_name: transport by ENT2 mRNA-injected vs water-injected oocytes (LC-MS/MS)

C[C@H](CCC(=O)O)[C@H]1CC[C@H]2[C@@H]3[C@@H](O)[C@@H](O)[C@@H]4C[C@H](O)CC[C@]4(C)[C@H]3CC[C@]12C [beta-muricholic acid] :: significant transport
C[C@H](CCC(=O)O)[C@H]1CC[C@H]2[C@@H]3[C@@H](O)C[C@@H]4C[C@H](O)CC[C@]4(C)[C@H]3CC[C@]12C [ursodeoxycholic acid] :: significant transport
C[C@H](CCC(=O)O)[C@H]1CC[C@H]2[C@@H]3[C@H](O)C[C@@H]4C[C@H](O)CC[C@]4(C)[C@H]3C[C@H](O)[C@]12C [CA, cholic acid] :: significant transport

----------
Molecular target: ENT1 (Homo sapiens)
Construct: The complete ORF of ENT1 (amplified using forward primer); expressed in transfected cells; host or cells: Xenopus laevis oocytes injected with in vitro-transcribed capped mRNA from pOX-hENT1
Experiment: Inhibition of 3H-nucleoside influx by BAs in ENT1-expressing Xenopus oocytes
Format: cell-based
Conditions: ENT1 IC50 (Ado uptake), 3H-Ado 20 μM, sodium-free buffer
measurement_name: IC50 (µM)
Provide only the numeric value, understood in µM.

# returns recorded IC50 (system: ENT1 (Homo sapiens)) for `C[C@H](CCC(=O)NCCS(=O)(=O)O)[C@H]1CC[C@H]2[C@@H]3[C@H](O)C[C@@H]4C[C@H](O)CC[C@]4(C)[C@H]3C[C@H](O)[C@]12C` 52.9

----------
Target: ENT3 (Homo sapiens)
Construct: plasma membrane–directed ENT3 with a truncated N-terminus (that harbors lysosomal targeting motif); expressed in transfected cells; host or cells: Xenopus laevis oocytes injected with in vitro-transcribed mRNA from pOX-Δ36hENT3
Sequence (Q9BZD2 with tags, fused parts or gaps): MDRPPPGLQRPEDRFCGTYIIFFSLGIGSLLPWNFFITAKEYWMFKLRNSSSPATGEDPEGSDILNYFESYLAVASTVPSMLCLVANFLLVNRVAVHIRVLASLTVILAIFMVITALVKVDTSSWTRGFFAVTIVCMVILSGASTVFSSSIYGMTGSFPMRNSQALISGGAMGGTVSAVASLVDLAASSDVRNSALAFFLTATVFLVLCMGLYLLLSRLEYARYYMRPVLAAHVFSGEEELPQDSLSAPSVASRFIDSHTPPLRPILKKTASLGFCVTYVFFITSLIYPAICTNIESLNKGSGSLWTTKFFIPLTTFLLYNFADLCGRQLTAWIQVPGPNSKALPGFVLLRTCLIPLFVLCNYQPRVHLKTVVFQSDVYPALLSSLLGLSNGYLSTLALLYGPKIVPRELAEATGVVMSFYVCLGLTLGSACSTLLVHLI
Assay: Inhibition of 3H-nucleoside influx by BAs in ENT3-expressing Xenopus oocytes
Type: cell-based
Details: 3H-Ado 20 μM, sodium-free buffer; read-out: ENT3 IC50 (Ado uptake)
Exercise: state measured IC50 for each of the molecules provided.
Just the number please, in µM, no unit attached.

Look up IC50 with ENT3 (Homo sapiens) for this molecule: C[C@H](CCC(=O)NCCS(=O)(=O)O)[C@H]1CC[C@H]2[C@@H]3[C@@H](O)C[C@@H]4C[C@H](O)CC[C@]4(C)[C@H]3CC[C@]12C [TUDCA, tauroursodeoxycholic acid] 35.3

Next molecule up: C[C@H](CCC(=O)O)[C@H]1CC[C@H]2[C@@H]3CC[C@@H]4C[C@H](O)CC[C@]4(C)[C@H]3CC[C@]12C [LCA] 88.8

# iterate: C[C@H](CCC(=O)O)[C@H]1CC[C@H]2[C@@H]3[C@H](O)C[C@@H]4C[C@H](O)CC[C@]4(C)[C@H]3C[C@H](O)[C@]12C [CA, cholic acid] 1.2

Again, but for C[C@H](CCC(=O)O)[C@H]1CC[C@H]2[C@@H]3[C@H](O)C[C@@H]4C[C@H](O)CC[C@]4(C)[C@H]3CC[C@]12C [CDCA, chenodeoxycholic acid] 0.3

What about this molecule? C[C@H](CCC(=O)O)[C@H]1CC[C@H]2[C@@H]3CC[C@@H]4C[C@H](O)CC[C@]4(C)[C@H]3C[C@H](O)[C@]12C [DCA, deoxycholic acid] 0.6

Then C[C@H](CCC(=O)NCC(=O)O)[C@H]1CC[C@H]2[C@@H]3[C@H](O)C[C@@H]4C[C@H](O)CC[C@]4(C)[C@H]3C[C@H](O)[C@]12C [GCA, glycocholic acid] ? 10.7

----------
Molecular target: ENT2 (Homo sapiens)
Test: Inhibition of 3H-nucleoside influx by BAs in ENT2-expressing Xenopus oocytes
Assay type: cell-based
Set-up: expressed in transfected cells; host or cells: Xenopus laevis oocytes injected with in vitro-transcribed capped mRNA from pOX-hENT2
Settings: BA 100 μM, 3H-Ado 20 μM, sodium-free buffer
For each entry below, report its ENT2 % uptake inhibition (Ado) value.
The answer is to be given in %; state only the numeric part.

Could you tell me which ENT2 % uptake inhibition (Ado) is on file for C[C@H](CCC(=O)O)[C@H]1CC[C@H]2[C@@H]3[C@H](O)C[C@@H]4C[C@H](O)CC[C@]4(C)[C@H]3C[C@H](O)[C@]12C [CA, cholic acid] ? 74.58

# iterate: C[C@H](CCC(=O)O)[C@H]1CC[C@H]2[C@@H]3CC[C@@H]4C[C@H](O)CC[C@]4(C)[C@H]3CC[C@]12C [LCA] 71.04

Now consider C[C@H](CCC(=O)O)[C@H]1CC[C@H]2[C@@H]3[C@H](O)C[C@@H]4C[C@H](O)CC[C@]4(C)[C@H]3CC[C@]12C [CDCA, chenodeoxycholic acid] and answer again. 66.07

How about C[C@H](CCC(=O)NCCS(=O)(=O)O)[C@H]1CC[C@H]2[C@@H]3[C@H](O)C[C@@H]4C[C@H](O)CC[C@]4(C)[C@H]3C[C@H](O)[C@]12C [TCA, taurocholic acid] ? 70.68

Same read-out for C[C@H](CCC(=O)NCC(=O)O)[C@H]1CC[C@H]2[C@@H]3[C@H](O)C[C@@H]4C[C@H](O)CC[C@]4(C)[C@H]3C[C@H](O)[C@]12C [GCA, glycocholic acid] ? 72.22

----------
Target: ENT1 (Homo sapiens, UniProt Q99808)
Construct: The complete ORF of ENT1 (amplified using forward primer); expressed in transfected cells; host or cells: Xenopus laevis oocytes injected with in vitro-transcribed capped mRNA from pOX-hENT1
Sequence (Q99808 whole entry): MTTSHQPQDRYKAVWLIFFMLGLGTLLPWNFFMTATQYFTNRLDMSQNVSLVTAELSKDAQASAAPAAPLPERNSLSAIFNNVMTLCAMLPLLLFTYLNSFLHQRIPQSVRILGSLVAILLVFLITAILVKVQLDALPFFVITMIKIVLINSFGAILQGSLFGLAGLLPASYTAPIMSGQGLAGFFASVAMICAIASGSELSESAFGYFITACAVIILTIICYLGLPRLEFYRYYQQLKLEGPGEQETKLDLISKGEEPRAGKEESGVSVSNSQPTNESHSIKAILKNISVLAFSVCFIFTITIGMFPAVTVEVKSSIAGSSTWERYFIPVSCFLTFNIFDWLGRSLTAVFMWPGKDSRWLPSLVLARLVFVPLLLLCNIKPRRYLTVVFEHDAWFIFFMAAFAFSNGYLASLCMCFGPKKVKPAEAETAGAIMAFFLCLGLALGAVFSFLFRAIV
Test: Inhibition of 3H-nucleoside influx by BAs in ENT1-expressing Xenopus oocytes
Format: cell-based
Details: BA 100 μM, 3H-Ado 20 μM, sodium-free buffer
Answer FALSE if ENT1 % uptake inhibition (Ado) is under 40%, and TRUE if it is 40% or more.

Can `C[C@H](CCC(=O)O)[C@H]1CC[C@H]2[C@@H]3[C@H](O)C[C@@H]4C[C@H](O)CC[C@]4(C)[C@H]3CC[C@]12C` be said to have ENT1 % uptake inhibition (Ado) at or above 40%? TRUE

// next record `C[C@H](CCC(=O)NCC(=O)O)[C@H]1CC[C@H]2[C@@H]3[C@H](O)C[C@@H]4C[C@H](O)CC[C@]4(C)[C@H]3C[C@H](O)[C@]12C` FALSE

Follow-up entry: `C[C@H](CCC(=O)NCCS(=O)(=O)O)[C@H]1CC[C@H]2[C@@H]3[C@@H](O)C[C@@H]4C[C@H](O)CC[C@]4(C)[C@H]3CC[C@]12C` TRUE

Next up: `C[C@H](CCC(=O)O)[C@H]1CC[C@H]2[C@@H]3CC[C@@H]4C[C@H](O)CC[C@]4(C)[C@H]3CC[C@]12C` FALSE

Please answer likewise for `C[C@H](CCC(=O)O)[C@H]1CC[C@H]2[C@@H]3[C@H](O)C[C@@H]4C[C@H](O)CC[C@]4(C)[C@H]3C[C@H](O)[C@]12C` TRUE

Proceed to `C[C@H](CCC(=O)NCCS(=O)(=O)O)[C@H]1CC[C@H]2[C@@H]3[C@H](O)C[C@@H]4C[C@H](O)CC[C@]4(C)[C@H]3C[C@H](O)[C@]12C` TRUE
